System: U2OS
experiment: Multiplex assay against U2OS
Assay type: toxicity, cell-based
condition_parameters: human, 12 h, 10 µM, compound concentration 10 uM, replicate 2
Consider the following molecules and their measured Population Mitochondria Different-Phenotype (%) readings.
Express the result in % but write the number alone.

Use these answered entries as a reference point.
molecule	recorded_result
COc1ncc(-c2ccc3nccc(-c4ccnnc4)c3c2)cc1NS(=O)(=O)c1ccc(F)cc1F	16
CN1CCN(c2ccc(OC(F)(F)F)c(Nc3ncc4c(n3)-c3c(c(C(N)=O)nn3CCO)CC4)c2)CC1	84
Cc1nc(-c2cn3c(n2)-c2ccc(-c4cnn(C(C)(C)C(N)=O)c4)cc2OCC3)n(C(C)C)n1	12
CN(C)C(=O)/C(C#N)=C/c1ccc(-c2nc3cnc4[nH]ccc4c3n2C2CCCCC2)o1	63

Could you share which Population Mitochondria Different-Phenotype (%) value was measured for c1cn2cc(-c3ccc4cn[nH]c4c3)nc(Nc3ccc(N4CCOCC4)cc3)c2n1 ?
82

Please do the same for CC(C)(O)CNc1ncc(-c2ccnc(Nc3ccnc(Cl)c3)n2)c(CC2CC2)n1 as well.
96

Please do the same for C[C@@H](NCCCc1cccc(C(F)(F)F)c1)c1cccc2ccccc12.Cl [CINACALCET HYDROCHLORIDE] as well.
93

Please do the same for COc1cccc([C@@H](C)NCCCc2ccccc2Cl)c1.Cl [TECALCET HYDROCHLORIDE] as well.
90

Attribution: ChEMBL document CHEMBL4689842
